Target: PknB (Mycobacterium tuberculosis, UniProt P9WI81)
Construct: made in house
Sequence (P9WI81 whole entry): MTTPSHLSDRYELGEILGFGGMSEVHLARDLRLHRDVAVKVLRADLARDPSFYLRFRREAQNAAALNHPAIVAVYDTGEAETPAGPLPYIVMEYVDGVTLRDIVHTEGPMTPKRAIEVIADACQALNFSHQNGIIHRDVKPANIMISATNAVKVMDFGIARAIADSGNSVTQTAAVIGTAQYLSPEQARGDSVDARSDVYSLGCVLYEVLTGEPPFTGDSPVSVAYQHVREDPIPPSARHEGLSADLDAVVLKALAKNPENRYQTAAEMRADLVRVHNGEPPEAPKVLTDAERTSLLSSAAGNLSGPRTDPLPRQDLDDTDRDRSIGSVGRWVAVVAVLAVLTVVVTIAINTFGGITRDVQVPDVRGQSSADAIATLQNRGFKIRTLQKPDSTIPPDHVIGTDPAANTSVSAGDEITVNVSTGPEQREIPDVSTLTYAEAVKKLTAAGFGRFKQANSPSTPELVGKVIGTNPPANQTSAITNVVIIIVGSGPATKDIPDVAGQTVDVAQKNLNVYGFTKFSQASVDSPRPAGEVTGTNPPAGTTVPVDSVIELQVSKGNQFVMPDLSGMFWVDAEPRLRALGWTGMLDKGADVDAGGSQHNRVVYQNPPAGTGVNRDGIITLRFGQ
Assay: biochemical
Design: species or system M. tuberculosis
Conditions: 3 nM PknB, 6 uM GarA, 3 μM ATP, 30 min; competitive tight-binding fit; several symbols in a cell = repeat determinations; read-out: Ki Values
pKi: −log10 of the molar value.
assay.metric: pKi

Example entries begin here.
# compound.structure, test.result
rows = [
    ("CS(=O)(=O)Nc1ccc(-c2ncc(Cl)c(Nc3cc(C4CC4)[nH]n3)n2)cc1", "7.30 to 8.00"),
    ("Cc1cnc(-c2ccc(S(N)(=O)=O)s2)nc1Nc1cc(C2CC2)[nH]n1", "8.00 to 9.00"),
    ("Oc1cnc(-c2ccccc2)nc1Nc1cc(C2CC2)[nH]n1", "5.70 to 6.00"),
]

Shifting focus to the compound that follows.
**Q:** API: value(readout=pKi, system=PknB (Mycobacterium tuberculosis, UniProt P9WI81)) for record O=C1/C=C\c2c(n[nH]c2C2CC2)Nc2nc(ncc2Cl)-c2ccccc21
**A:** < 5.40

###

Target: PknB (Mycobacterium tuberculosis, UniProt P9WI81)
Construct: made in house
Assay: biochemical
Set-up: species or system M. tuberculosis
Conditions: 3 nM PknB, 6 uM GarA, 3 μM ATP, 30 min; competitive tight-binding fit; several symbols in a cell = repeat determinations
assay.metric: Ki Values

Example entries begin here.
# compound.structure, Ki Values
measured = [
    ("CN(C)S(=O)(=O)c1ccc(Nc2nccc(Nc3cc(C4CC4)n[nH]3)n2)cc1", "A**, A*"),
    ("CC(=O)c1ccc(-c2ncc(Cl)c(Nc3cc(C4CC4)[nH]n3)n2)s1", "A**, A*"),
    ("Cc1cnc(-c2cccs2)nc1Nc1cc(C2CC2)[nH]n1", "A*, A"),
    ("C#Cc1cnc(N2CC[C@H](NC(=O)OC(C)(C)C)C2)nc1Nc1cc(C2CC2)n[nH]1", "C, D"),
]

**Q:** Can you share its Ki Values? I mean this molecule: CS(=O)(=O)c1ccc(-c2ncc(F)c(Nc3cc(C4CC4)[nH]n3)n2)cc1
**A:** A*, A

**Q:** Ok, now O=S(=O)(c1ccc(-c2ncc(Cl)c(Nc3cc(C4CC4)[nH]n3)n2)s1)N1CCOCC1
**A:** A*, A

**Q:** Ok, now CC(C)(O)c1ccc(-c2ncc(Cl)c(Nc3cc(C4CC4)[nH]n3)n2)s1
**A:** A**, A*

###

Target: PknB (Mycobacterium tuberculosis, UniProt P9WI81)
Construct: made in house
Assay: biochemical
Set-up: species or system M. tuberculosis
Details: 3 nM PknB, 6 uM GarA, 3 μM ATP, 30 min; competitive tight-binding fit; several symbols in a cell = repeat determinations; read-out: Ki Values
pKi: −log10 of the molar value.
// pKi lookup, one value per entry

# compound, assay.metric, test.result
data = [
    ("N#CCc1ccc(-c2ncc(Cl)c(Nc3cc(C4CC4)n[nH]3)n2)s1", "pKi", "8.00 to 9.00"),
    ("CC(C#N)c1ccc(-c2ncc(Cl)c(Nc3cc(C4CC4)[nH]n3)n2)s1 (stereo not drawn)", "pKi", "7.30 to 8.00"),
    ("NS(=O)(=O)c1ccc(-c2nc(Nc3cc(C4CC4)n[nH]3)cc(C3CC3)n2)s1", "pKi", "7.00 to 7.30"),
    ("O=S(=O)(c1ccc(-c2ncc(Cl)c(Nc3cc(C4CC4)[nH]n3)n2)s1)N1CCNCC1", "pKi", "7.30 to 8.00"),
]

Shifting focus to the compound that follows.
**Q:** Can you share its pKi? I mean this compound: C#Cc1cnc(Nc2ccc3[nH]ncc3c2)nc1Nc1cc(C2CC2)[nH]n1
**A:** 7.30 to 8.00

Data origin, for the record: patent US20110053916A1
